experimental target: wild-type Pin1 (Homo sapiens)
Sequence (Q13526 whole entry): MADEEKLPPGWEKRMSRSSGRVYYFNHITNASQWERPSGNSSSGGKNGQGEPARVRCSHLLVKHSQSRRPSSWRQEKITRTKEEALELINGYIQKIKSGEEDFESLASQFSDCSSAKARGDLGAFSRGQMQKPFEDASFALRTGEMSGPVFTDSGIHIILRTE
assay info: NMR titration
Format: binding
details: read-out: equilibrium dissociation constant Kd (WT); residue R14, WW domain; 295 K, 16.4 T; 30 mM imidazole-d4 pH 6.6, 5 mM DTT-d10, 30 mM NaCl, 0.03% NaN3, 90% H2O/10% D2O; uncertainties by jack-knife simulations
observation type: pKd
Bear in mind: pKd is minus log10 of a mol/L concentration; give just that figure.

Identify measured pKd corresponding to EQPLpTPVTDL [Cdc25C phosphopeptide]
5.57

Sourced from paper PMC3794440
